assay: NCI Yeast Anticancer Drug Screen. Data for the mec2-1 strain (AID 157); conditions: S. cerevisiae mec2-1 strain, at 5.0 µM (retest, dose inferred, filed as 0.5), stronger effect = higher value
The panel holds about 79,000 compounds, 15% with a hit somewhere; the sample as a whole holds those more often.
Each item that follows carries a reported growth inhibition.
Expressed in %, but write only the number.

Here are 6 compounds together with their reported answers.
Oc1ccc2c(c1)Cc1cc(Br)ccc1-2	-6
Oc1ccc(C/C=C/c2ccccc2)cc1O	4
N#Cc1cn(-c2c3ccccc3nc3ccccc23)c(=O)[nH]c1=O	-9
N#Cc1ccc(C(F)(F)F)cc1[N+](=O)[O-]	44
Oc1c(Cl)c(Cl)c2ncccc2c1Cl	10
COC(=O)c1ccccc1C(=O)c1cc(OC)c2c(c1OC)CCCC2	0

Read off the recorded growth inhibition for O=C(N/N=C/c1ccccc1O)C1Cc2ccccc2C1C(Cl)Cl (configuration not stated)
36

Read off the recorded growth inhibition for Cc1ccccc1N=Nc1ccccc1
17

Read off the recorded growth inhibition for Cc1cc(C(=O)O)c(C)cc1SSc1cc(C)c(C(=O)O)cc1C
11

// data source = PubChem BioAssay (NCI)
